The reported measurements were obtained from patent US8357697B2.

Ki tested on Dopamine D2S receptor (Homo sapiens, UniProt P14416): recorded values
Sequence (P14416 1-414 isoform P14416-2): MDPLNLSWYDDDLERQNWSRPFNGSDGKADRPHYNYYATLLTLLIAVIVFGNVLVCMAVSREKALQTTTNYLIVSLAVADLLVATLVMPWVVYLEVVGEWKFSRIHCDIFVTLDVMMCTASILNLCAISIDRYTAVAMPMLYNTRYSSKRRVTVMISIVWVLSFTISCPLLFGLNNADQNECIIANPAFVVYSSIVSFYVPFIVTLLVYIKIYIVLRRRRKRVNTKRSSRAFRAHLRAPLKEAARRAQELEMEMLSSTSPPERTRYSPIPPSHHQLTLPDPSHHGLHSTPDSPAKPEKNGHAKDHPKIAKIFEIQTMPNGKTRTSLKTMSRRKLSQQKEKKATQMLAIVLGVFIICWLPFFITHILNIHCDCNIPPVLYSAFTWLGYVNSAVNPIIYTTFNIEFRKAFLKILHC
Measured endpoint: Ki (nM)

[A] COc1cc2c(cc1OC)[C@@H]1C[C@H](O)[C@@H](CC(C)C)CN1CC2 [2S, 3S, 11bS-HTBZ]
[B] COc1cc2c(cc1OC)[C@@H]1C[C@@H](O)[C@@H](CC(C)C)CN1CC2 [2R, 3S, 11bS-HTBZ]
*Q* Compare A and B by numeric Ki and name the larger one. # reply format: chosen label
*A* A
(A: 192 nM, B: 57 nM)
